Hi there, I'd appreciate the recorded pKi for every entry that follows.
# method.notes: Inhibitory constant against Dopamine transporter
One number for each entry, as −log10 of the molar value.

smiles.repr | pKi
Cc1ccccc1S[C@@H](c1ccccc1)[C@@H]1CNCCO1 | 6.64

Now take the following molecule into account.
Request: Value lookup for pKi; key = c1ccc(S[C@@H](c2ccccc2)[C@@H]2CNCCO2)cc1
Result: 6.28

----------
# method.notes: Inhibitory constant against Serotonin transporter
experimental.endpoint: pKi
Give bare numbers, as −log10 of the molar value.

In the examples that follow, each entry is paired with its recorded pKi.
compound | pKi
COc1ccccc1S[C@@H](c1ccccc1)[C@@H]1CNCCO1 (stereo in doubt; 14) | 8.92
COc1ccccc1S[C@@H](c1ccccc1)[C@@H]1CNCCO1 (stereo in doubt; form 1) | 7.18
COc1ccccc1S[C@@H](c1ccccc1)[C@@H]1CNCCO1 (stereo in doubt; form 2) | 8.82

For every listed record, write down its pKi.
1. c1ccc(S[C@@H](c2ccccc2)[C@@H]2CNCCO2)cc1
2. Cc1ccccc1S[C@@H](c1ccccc1)[C@@H]1CNCCO1

Result:
1: 7.44; 2: 9.70

Request: Value lookup for pKi; key = Cc1cccc(S[C@@H](c2ccccc2)[C@@H]2CNCCO2)c1
Result: 8.49

----------
# experimental.system: Sodium-dependent serotonin transporter (Homo sapiens) (UniProt P31645)
# Sequence (P31645 whole entry, looked up): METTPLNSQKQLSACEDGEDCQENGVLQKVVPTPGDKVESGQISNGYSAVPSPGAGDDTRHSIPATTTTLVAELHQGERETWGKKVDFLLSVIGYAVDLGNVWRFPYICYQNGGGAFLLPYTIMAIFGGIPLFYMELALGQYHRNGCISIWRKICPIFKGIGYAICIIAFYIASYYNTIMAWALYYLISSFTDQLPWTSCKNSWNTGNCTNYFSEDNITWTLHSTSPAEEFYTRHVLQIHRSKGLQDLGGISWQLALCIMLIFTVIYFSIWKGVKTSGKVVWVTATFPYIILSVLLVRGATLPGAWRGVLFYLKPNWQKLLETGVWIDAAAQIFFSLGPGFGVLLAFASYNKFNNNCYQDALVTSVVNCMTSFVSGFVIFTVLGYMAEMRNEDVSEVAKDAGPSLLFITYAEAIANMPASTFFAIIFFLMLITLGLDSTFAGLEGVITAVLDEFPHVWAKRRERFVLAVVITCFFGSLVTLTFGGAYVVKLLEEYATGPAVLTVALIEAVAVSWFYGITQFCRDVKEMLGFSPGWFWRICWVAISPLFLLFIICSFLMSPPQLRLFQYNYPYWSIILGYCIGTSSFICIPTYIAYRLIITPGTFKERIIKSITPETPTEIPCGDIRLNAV
# method.notes: Displacement of serotonin by the compound against serotonin transporter was determined
pKi: −log10 of the molar value.
Hi there, I'd appreciate the recorded pKi for every entry that follows.

smiles.repr | experimental.endpoint | observed.measurement
Cc1ccc(S[C@@H](c2ccccc2)[C@@H]2CNCCO2)cc1 | pKi | < 7.00

Request: Value lookup for pKi; key = CCOc1ccccc1O[C@@H](c1ccccc1)[C@@H]1CNCCO1
Result: < 7.00

Reference source for all entries: ChEMBL document CHEMBL1144290
